- Tested on: CAL-85-1
- MEASUREMENT NOTES: drug sensitivity score (DSS), CellTox Green (DSS (AUC-based score)); higher = stronger drug effect (viability inhibition or cytotoxicity); extreme values may be limits of the assay
- DETAILS: incubation time: 72 h
MEASUREMENT NAME: drug sensitivity score
Please give only the number in your answer, with no unit.

Worked cases, answers included:
Cc1ccc([N+](=O)[O-])cc1S(=O)(=O)N(C)/N=C/c1cnc2ccc(Br)cn12 ... 25.2
Nc1ncn([C@@H]2O[C@H](CO)[C@@H](O)[C@H]2O)c(=O)n1 ... 0

What value of drug sensitivity score has been recorded for this entry: "CC[C@@H]1C(=O)OC[C@@H]1Cc1cncn1C" 0

What would you report for "CC1(C)CCC(CN2CCN(c3ccc(C(=O)NS(=O)(=O)c4ccc(NCC5CCOCC5)c([N+](=O)[O-])c4)c(Oc4cnc5[nH]ccc5c4)c3)CC2)=C(c2ccc(Cl)cc2)C1" ? 0

What would you report for O=C1CN2Cc3c(ccc(Cl)c3Cl)N=C2N1 [Anagrelide] ? 0

---

- Test system: HCC1143
- MEASUREMENT NOTES: normalised response (% of control), CellTiter-Glo; higher = more viable cells (100 = DMSO, 0 = benzethonium chloride kill control)
- DETAILS: incubation time: 72 h
MEASUREMENT NAME: normalised response (%)
Provide the reading as a plain figure in %.

COc1cc(F)c(F)c(Nc2ccc(I)cc2F)c1NS(=O)(=O)C1(C[C@H](O)CO)CC1 [Refametinib] (1000 nM) ... 77.2

What value of normalised response has been recorded for this entry: C[C@]1(O)C[C@@H](c2nc(-c3ccc4ccc(-c5ccccc5)nc4c3)c3c(N)nccn32)C1 [Linsitinib] (10 nM) 96.1

What would you report for CC1(C)CNc2cc(NC(=O)c3cccnc3NCc3ccncc3)ccc21 [Motesanib] (1 nM) ? 99

What would you report for Cc1ccc([N+](=O)[O-])cc1S(=O)(=O)N(C)/N=C/c1cnc2ccc(Br)cn12 [PIK-75] (1000 nM) ? 13.3

What would you report for Nc1nc2[nH]cnc2c(=S)[nH]1 [Thioguanine] (10 nM) ? 101

What would you report for Cn1cnc2c(F)c(Nc3ccc(Br)cc3Cl)c(C(=O)NOCCO)cc21 [Selumetinib] (10 nM) ? 91

What would you report for CC1(C)CNc2cc(NC(=O)c3cccnc3NCc3ccncc3)ccc21 [Motesanib] (1000 nM) ? 93.6

---

- System: MDA-MB-453
- MEASUREMENT NOTES: normalised viability (% of control), CellTiter-Blue; higher = more viable cells (about 100 = DMSO control)
- DETAILS: 10 nM; incubation time: 72 h
MEASUREMENT NAME: normalised viability (%)
Provide the reading as a plain figure in %.

Worked cases, answers included:
COc1cc(F)c(F)c(Nc2ccc(I)cc2F)c1NS(=O)(=O)C1(C[C@H](O)CO)CC1 [RDEA119] ... 78.3
Nc1nc2[nH]cnc2c(=S)[nH]1 [Thioguanine] ... 109
Cc1sc2c(c1C)C(c1ccc(Cl)cc1)=N[C@@H](CC(=O)OC(C)(C)C)c1nnc(C)n1-2 [(+)JQ1] ... 108
O=P(O)(O)C(O)(Cn1ccnc1)P(=O)(O)O [Zoledronic acid] ... 96.2

Fill in the recorded normalised viability for this compound, with MDA-MB-453 as test system: CC1(C)CNc2cc(NC(=O)c3cccnc3NCc3ccncc3)ccc21 [Motesanib] 82.7

What would you report for COc1cc2c(cc1O)CC[C@@H]1[C@@H]2CC[C@]2(C)[C@@H](O)CC[C@@H]12 [2-methoxyestradiol] ? 95.3
